# Experiment: NCI Yeast Anticancer Drug Screen. Data for the bub3 strain (AID 167)
# Study conditions: S. cerevisiae bub3 mutant strain, at 50.0 µM
About 79,000 compounds went through this panel and 15% of them were active in at least one assay; those are over-represented in the sample as a whole. Active and inactive are the calls of the source. Cut-off read from the data, not from the text of the source: active = growth inhibition above about 70%; inactive = the rest.
Possible outcomes: true for active, false for inactive

[[record]]
compound = "COc1ccc2nc3c(Cl)cccc3c(Cl)c2c1"
category_label = "false"

[[record]]
compound = "CCCCCCCCCCCCCCSc1ccc2ccccc2c1"
category_label = "false"

[[record]]
compound = "CCOC(=O)/C(O)=C/c1cc(=O)n(C)c2ccccc12"
category_label = "false"

[[record]]
compound = "CCN(CC)CC(O)Cn1cnc2c(SC)ncnc21 (configuration not stated)"
category_label = "false"

[[record]]
compound = "CC(=O)OC(C)C1CCCC1OC(C)=O (configuration not stated)"
category_label = "false"

[[record]]
compound = "Cc1cc(N(CCCCl)CCCCl)ccc1C=Nc1cc(Br)c(O)c(Br)c1"
category_label = "true"

[[record]]
compound = "Nc1nc2c(c(=O)[nH]1)C(c1ccc(Cl)cc1)C=C(c1ccccc1)N2 (configuration not stated)"
category_label = "false"

[[record]]
compound = "CCOC(=O)C(C#N)=C(CC)CC"
category_label = "false"

[[record]]
compound = "COC(=O)C(=O)c1cc(C)n(C)c(=O)c1CN1C(=O)c2ccccc2C1=O"
category_label = "false"

[[record]]
compound = "O=C1Cc2nc3ccccc3nc2CC(=O)c2ccccc21"
category_label = "false"

[[record]]
compound = "COc1ccc(CCN(C)C(c2ccccc2)c2ccccc2)cc1OC"
category_label = "false"

[[record]]
compound = "O=C1NC(=O)/C(=C\\c2cccc(Br)c2)N1"
category_label = "false"

